The reported numbers originate from PubChem BioAssay (NCI).

Catalogue of molecules with associated growth
Test system: MDA-MB-435 melanoma
experiment: NCI-60 one-dose screen, 48 h (100 = growth as untreated, 0 = no growth, -100 = all killed)
condition set: 10 µM unless noted
This is part of a sample that, as a whole, favours compounds with a hit. Of some 83,000 tested, about 20% had one in any assay.
Supply the numeric figure in %, leaving out any unit text.

Please review the following examples before continuing.
> print(dat)
                                   molecule  metric  recorded.result
1                Clc1ccc2nc(Cl)c3ccccc3c2c1  growth             50.3
2  CSc1nc2c(c(=O)[nH]1)C(c1ccc(Cl)cc1)C1=C(N2)/C(=C/c2ccc(Cl)cc2)CNC1 (stereo not given)  growth             34.5
3           O=c1[nH]c(Cl)nc2c1cnn2-c1ccccc1  growth             52.4
4  CCOc1nc(-c2ccccc2)cc2c(O)c(C(=O)n3nc(C)cc3C)[nH]c(=O)c12  growth              112
5          CCOC(=O)c1c(C)c(C(=O)OCC)n(C)c1C  growth              101

Request: Reported growth for MDA-MB-435 melanoma, given Cc1cc(C)c2c(c1)N1OC(C2)C[C@H]1/C=C/c1ccccc1 (stereo not given in full) ?
Response: 87.2

Request: Reported growth for MDA-MB-435 melanoma, given "COc1ccc(-c2cc(C(=O)Nc3nc4cc(C)c(C)cc4s3)nc3cc(-c4ccccc4)nn23)cc1OC" ?
Response: 96.8

----------
System: M14 melanoma
experiment: NCI-60 one-dose screen, 48 h
condition set: 10 µM unless noted
Compounds without any hit were thinned out: in the full panel of roughly 83,000, 20% have a hit. Active and inactive are the calls of the source. Rule for the calls: active = growth percent below 10; inactive = the rest.
Outcomes you can answer with include only these: Y = active, N = inactive

Worked cases, answers included:
> print(dat)
                                   molecule  class
1  CCC(=O)Nc1ccccc1C#C/C=C\C#Cc1ccccc1C(F)(F)F      N
2  Cn1cc(-c2nc(-c3c[nH]c4ncc(F)cc34)cs2)c2cccnc21      N
3  O=C(O)c1ccc(NC(=O)c2ccc(Nc3ccnc(C(F)(F)F)c3)cc2)cc1      N
4  COc1ccc(-c2cnnn2-c2cc(OC)c3c(c2)OCO3)cc1      N

Request: Check the results log: what was the call for "CCN(CC)c1ccc(N=Nc2cc(Cl)ccc2Cl)c(NC(=O)CCC(=O)O)c1" ?
Response: N

Request: Check the results log: what was the call for "ClC1=C(Cl)C(Cl)=C(Cl)C1=C/C=C/c1ccccc1" ?
Response: Y

Request: Check the results log: what was the call for "COc1c(C)c2c(c(O)c1C/C=C(\C)CCC(=O)OCCN1CCOCC1)C(=O)OC2" ?
Response: N

Request: Check the results log: what was the call for "COc1ccc2nccc(/C=C/c3ccnc4ccc(OC)cc34)c2c1" ?
Response: N

Request: Check the results log: what was the call for CC(=O)Oc1ccc(C2OC(c3ccc4ccccc4c3OC(C)=O)=NN2C(C)=O)c(OC(C)=O)c1 (stereo not drawn) ?
Response: Y

Request: Check the results log: what was the call for "C[n+]1ccc(C#N)c2ccccc21" ?
Response: N

----------
System: OVCAR-5 ovarian
experiment: NCI-60 one-dose screen, 48 h (100 = growth as untreated, 0 = no growth, -100 = all killed)
condition set: 10 µM unless noted
The panel holds about 83,000 compounds, 20% with a hit somewhere; the sample as a whole holds those more often.
metric: growth (%)
Supply the numeric figure in %, leaving out any unit text.

Please review the following examples before continuing.
> print(dat)
                              line.notation  unit.of.measurement  recorded.result
1  CCC[C@H](N[C@@H](C)C(=O)N1[C@H](C(=O)O)C[C@@H]2CCCC[C@@H]21)C(=O)OCC                    %             88.9
2             CCn1c2ccccc2c2ccc(C(C)=O)cc21                    %             89.9

Next item in the queue.
Request: Quick one: growth of "CC(=O)n1c2ccccc2c2ccccc21" ?
Response: 89.3

----------
Catalogue of compounds with associated growth
Tested on: U251 CNS
experiment: NCI-60 one-dose screen, 48 h (100 = growth as untreated, 0 = no growth, -100 = all killed)
condition set: 10 µM unless noted
Method: Growth inhibition of the U251 human tumor cell line is measured as a screen for anti-cancer activity. Cells are grown in 96 well plates and exposed to the test compound for 48 hours. Compounds are tested at a single concentration, which is 10^-5 M for most compounds. The reported endpoint is percent growth (GI% or GIPRCNT), where numbers from 0 - 100% represent growth inhibition, and numbers from -100% - 0 represent cell death. For example, a value of 40 represents 60% growth inhibition. […]
About 83,000 compounds went through this panel and 20% of them were active in at least one assay; those are over-represented in the sample as a whole. Activity calls are given as the source filed them. How the source made its calls: active means growth percent below 10; inactive means the rest.

Please review the following examples before continuing.
> print(dat)
                                   compound   recorded.result
1                      O=C1CN(CO)C(=O)CN1CO   100% (inactive)
2  CC1=C(C(=O)Nc2ccccc2)C(c2ccc3c(c2)OCCO3)NC(=O)N1 (stereo unspecified)   105% (inactive)
3        CN(C)c1ccc2c(c1)/C(=N/O)c1ccccc1-2  48.9% (inactive)
4          CCOC(=O)c1c(C)c(C(=O)OCC)n(C)c1C  99.5% (inactive)
5  Cc1c(C(N)=O)sc2c1C(=O)N(Cc1ccccc1)C1=NN=C(c3ccc(Cl)cc3)CN12  29.9% (inactive)

Next item in the queue.
Request: Reported growth for U251 CNS, given "CCCCCCCCCCCCNc1ncnc2[nH]ncc12" ?
Response: 87.7% (inactive)

----------
Catalogue of molecules with associated growth
System: OVCAR-8 ovarian
experiment: NCI-60 one-dose screen, 48 h (100 = growth as untreated, 0 = no growth, -100 = all killed)
condition set: 10 µM unless noted
About 83,000 compounds went through this panel and 20% of them were active in at least one assay; those are over-represented in the sample as a whole.
Supply the numeric figure in %, leaving out any unit text.

molecule	growth / %
O=C1/C(=N/O)CCc2ccccc21	95.6
CC(C)C(=O)Cc1cnccn1	102

Request: Quick one: growth of "CC(C)(C)c1ccc(S(=O)(=O)O)s1" ?
Response: 108

Request: Quick one: growth of O=C(C(=O)N1CCCCC1)c1ccc(OC2OC(CO)C(O)C(O)C2O)cc1 (stereo not given) ?
Response: 95.9

Request: Quick one: growth of "COc1cc(/C=C/c2nnc(-c3cc(-c4ccccc4)n[nH]3)o2)cc(OC)c1OC" ?
Response: 80.8

Request: Quick one: growth of "N#CCCN(CCO)c1ccccc1" ?
Response: 102

Request: Quick one: growth of "COC(=O)CC1=C(C)/C(=C/c2[nH]c(-c3ccc[nH]3)cc2OC)N=C1C" ?
Response: 6.58

Request: Quick one: growth of "COc1ccc(-c2noc(N)c2-c2cc(OC)c3c(c2)OCO3)cc1" ?
Response: 26.6

----------
Catalogue of molecules with associated growth
Test system: MCF7 breast
experiment: NCI-60 one-dose screen, 48 h (100 = growth as untreated, 0 = no growth, -100 = all killed)
condition set: 10 µM unless noted
About 83,000 compounds went through this panel and 20% of them were active in at least one assay; those are over-represented in the sample as a whole.
Supply the numeric figure in %, leaving out any unit text.

Please review the following examples before continuing.
> print(dat)
                                   molecule  recorded.result
1             COc1ccc2[nH]c(-c3ccccc3)cc2c1               95
2  Cc1ccc(NC(=O)CSc2nnc3n(Cc4ccccc4)c(=O)c4c(C)c(C(N)=O)sc4n23)cc1             44.8
3                   O=C(NCCCO)c1cc(Cl)ccc1O             18.9
4  Cc1c(C(N)=O)sc2c1c(=O)n(Cc1ccccc1)c1nnc(S(=O)(=O)CC(=O)Nc3ccc(Cl)cc3)n21             73.5
5  COc1ccc(-c2c3c(nn2-c2ccc(N)cc2)CCc2cnoc2-3)cc1OC             94.1

Request: Reported growth for MCF7 breast, given "COc1ccc2[nH]cc(/C=C3/C(=O)Nc4ccc(Cl)cc43)c2c1" ?
Response: 40.7

Request: Reported growth for MCF7 breast, given "NS(=O)(=O)c1ccc(NC2=C(Cl)C(=O)c3ccccc3C2=O)cc1" ?
Response: 72.8

Request: Reported growth for MCF7 breast, given "O=C(Nc1nc2ccccc2s1)c1cc(-c2ccc(F)cc2)n2nc(-c3ccccc3)cc2n1" ?
Response: 69.3

Request: Reported growth for MCF7 breast, given "Nc1ccc(S(=O)(=O)Nc2ncccn2)cc1" ?
Response: 101

Request: Reported growth for MCF7 breast, given "COc1ccc(-c2csc(NC(=O)c3cc(OC)c(OC)c(OC)c3)n2)cc1" ?
Response: 98.3

Request: Reported growth for MCF7 breast, given "COc1ccc2c(c1)C(=O)/C(=C/c1ccc([N+](=O)[O-])s1)O2" ?
Response: 3

Request: Reported growth for MCF7 breast, given CC(NC(=O)C(C)Oc1ccc(Cl)cc1Cl)C(=O)O (configuration not stated) ?
Response: 99.1

Request: Reported growth for MCF7 breast, given CC12CCCCC1C(C(N)=O)C(=O)O2 (configuration not stated) ?
Response: 99.3

Request: Reported growth for MCF7 breast, given "O=C1/C(=C/c2ccc3cccc(Cl)c3n2)SC(=S)N1CCc1ccc(O)cc1" ?
Response: 86.3
